System: Acinetobacter baumannii ATCC17961
experimental-protocol: Antimicrobial susceptibility testing: 90% growth inhibitory concentration (IC90) determination in Iso-Sensitest broth, OD600 growth
Assay type: cell-based
condition-label: strain ATCC 17961, OD600 growth over 16 h, read-out: A. baumannii ATCC 17961 IC90
Recorded log10 of IC90, one value per entry.
Annotation: log10 of IC90, nM basis.

Recorded log10 of IC90, per entry:
[[record]]
compound = "N#CCn1cc(-c2cnc3c(Nc4ccc(C(=O)N5CCN(C(=O)NC6CNC6)CC5)c(Cl)c4)nccn23)c(C(F)(F)F)n1"
target_or_test_system = "Acinetobacter baumannii ATCC17961"
property_name = "log10 of IC90"
readout_value = 2.54

[[record]]
compound = "NC1CCC(NC(=O)N2CCN(C(=O)c3ccc(Nc4nccn5c(-c6c[nH]nc6C(F)(F)F)cnc45)cc3Cl)CC2)CC1 (stereo not shown) [Example 291]"
target_or_test_system = "Acinetobacter baumannii ATCC17961"
property_name = "log10 of IC90"
readout_value = 2.52

[[record]]
compound = "NC1CC(NC(=O)c2ccc(Nc3nccn4c(-c5c[nH]nc5C(F)(F)F)cnc34)cc2Cl)C1 (stereo not shown) [Example 384]"
target_or_test_system = "Acinetobacter baumannii ATCC17961"
property_name = "log10 of IC90"
readout_value = 2.92

[[record]]
compound = "C=CCn1cc(-c2cnc3c(Nc4ccc(C(=O)NCCOCC(C)N)c(CC)c4)nccn23)c(C(F)(F)F)n1 (stereo in doubt)"
target_or_test_system = "Acinetobacter baumannii ATCC17961"
property_name = "log10 of IC90"
readout_value = 1.45

[[record]]
compound = "CCc1cc(Nc2nccn3c(-c4c[nH]nc4C(F)(F)F)cnc23)ccc1C(=O)NCCOCCN"
target_or_test_system = "Acinetobacter baumannii ATCC17961"
property_name = "log10 of IC90"
readout_value = 2.11


Asked: Fill in: log10 of IC90 of N#CCn1cc(-c2cnc3c(Nc4ccc(C(=O)N5CCN(C(=O)NCCN)CC5)c(Cl)c4)nccn23)c(C(F)(F)F)n1 [Example 258] is ___
Given back: 2.60

Asked: Which log10 of IC90 is reported for this compound? N#CCn1cc(-c2cnc3c(Nc4ccc(C(=O)NCCO)c(Cl)c4)nccn23)c(C(F)(F)F)n1
Given back: 2.28

Asked: Look at this compound and give its reported log10 of IC90. C#CCn1cc(-c2cnc3c(Nc4ccc(C(=O)NCCCN)c(CC)c4)nccn23)c(C(F)(F)F)n1
Given back: 2.02

Asked: What value of measured log10 of IC90 is listed for N#CCn1cc(-c2cnc3c(Nc4ccc(C(=O)N5CCN(C(=O)NCCN)CC5)c(Cl)c4)nccn23)c(C(F)(F)F)n1 [Example 264] ?
Given back: 2.65

Origin of values: patent US20230203043A1
